Target: HLA-DR (DRA1*01:01 / DRB1*10:01), soluble knob-into-hole Fc heterodimer (human)
Experiment: ELISA
endpoint_name: Ki (nM)
Numbers only, in nM.

INPUT: If you can, please state the reported Ki value of KPVSKMRMATPLLMQALPM [human CLIP peptide, unlabelled competitor] .
OUTPUT: 13.3
